Kindly state T½ for each of the entries shown.
biological target: T1, hPRLR.mmh (soluble monomeric human PRLR) (Homo sapiens, UniProt P16471); assay: Surface plasmon resonance (Biacore T200), mAb-capture format; type: binding; settings: 25° C., antibody-capture format, analyte hPRLR.mmh
T1 construct: soluble monomeric (hPRLR.mmh); mmh (myc-myc-hexahistidine)
T1 sequence (P16471 with tags, fused parts or gaps): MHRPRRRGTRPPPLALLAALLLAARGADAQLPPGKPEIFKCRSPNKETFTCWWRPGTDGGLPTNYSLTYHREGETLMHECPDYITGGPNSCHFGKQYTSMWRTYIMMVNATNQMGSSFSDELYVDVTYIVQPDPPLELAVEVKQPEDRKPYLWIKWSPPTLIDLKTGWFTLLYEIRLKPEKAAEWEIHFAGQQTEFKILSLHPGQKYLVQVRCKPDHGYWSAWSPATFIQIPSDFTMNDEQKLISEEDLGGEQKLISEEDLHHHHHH
Give bare numbers, in min.

>>> val("H1H6792P: anti-PRLR antibody, human IgG1 Fc; HCVR/LCVR SEQ ID NOs 130/138 (antibody, V domains shown, human IgG1 Fc) VH: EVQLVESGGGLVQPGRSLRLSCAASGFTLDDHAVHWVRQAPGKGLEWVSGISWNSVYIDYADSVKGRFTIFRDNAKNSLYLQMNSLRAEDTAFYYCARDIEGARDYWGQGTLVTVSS VL: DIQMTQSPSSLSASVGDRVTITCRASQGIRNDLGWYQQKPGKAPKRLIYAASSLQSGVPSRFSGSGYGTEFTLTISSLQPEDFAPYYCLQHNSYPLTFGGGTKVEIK")
15

Hi, could you look up T½ for each item in my list?
1. H1H6774P: anti-PRLR antibody, human IgG1 Fc; HCVR/LCVR SEQ ID NOs 34/42 (antibody, V domains shown, human IgG1 Fc) VH: EVQLVESGGGLAQPGGSLRLSCVASGFTFSTYWMSWVRQAPGKGLDWVGNIKQDGSEQNYVDSVRGRFTISRDNAKNSLFLQMNSLRAEDTGVYYCATLLTKGDYWGQGTLVTVSS VL: DIQMTQSPSSLSASVGDSVTITCRASQDISNYLDWFQQKPGKAPKSLIYAASILQGGVPSRFSGSGYGTDFTLTISSLQPEDFATYYCRQYKTYPFTFGPGTKVDIK
2. H1H6785P: anti-PRLR antibody, human IgG1 Fc; HCVR/LCVR SEQ ID NOs 98/106 (antibody, V domains shown, human IgG1 Fc) VH: EVQLVESGGGLVQPGGSLRLSCAASGFTFSSYEMNWVRQAPGKGLEWISYISSRGGTIYYADSIKGRFTIYRDNARNSLYLQMNSLRAEDTAIYYCARLSGVDIFDIWGQGTMVTVSS VL: DIQMTQSPSSLSASVGDRVTITCRASQGISNYLAWYQQKPGKVPKLLIYFASTLQSGVPSRFSGGGSGTDFTLTISSLQPEDVATYYCQRYNSAPLTFGGGTKVEIK

-- reply
1. 14
2. 68

// H1H6975N: human IgG1 Fc form of H2M6975N; anti-PRLR; HCVR/LCVR SEQ ID NOs 370/378 (antibody, V domains shown, human IgG1 Fc) VH: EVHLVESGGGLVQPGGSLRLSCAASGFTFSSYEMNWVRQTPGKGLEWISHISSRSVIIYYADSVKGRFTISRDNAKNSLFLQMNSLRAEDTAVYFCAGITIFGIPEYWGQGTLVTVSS VL: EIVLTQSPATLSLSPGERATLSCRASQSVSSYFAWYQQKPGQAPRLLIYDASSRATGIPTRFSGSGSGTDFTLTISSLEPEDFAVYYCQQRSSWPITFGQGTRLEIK : T½ value = 157.1
